# measured_on: Mitogen-activated protein kinase 14 (Homo sapiens) (UniProt Q16539)
# Sequence (Q16539 whole entry, looked up): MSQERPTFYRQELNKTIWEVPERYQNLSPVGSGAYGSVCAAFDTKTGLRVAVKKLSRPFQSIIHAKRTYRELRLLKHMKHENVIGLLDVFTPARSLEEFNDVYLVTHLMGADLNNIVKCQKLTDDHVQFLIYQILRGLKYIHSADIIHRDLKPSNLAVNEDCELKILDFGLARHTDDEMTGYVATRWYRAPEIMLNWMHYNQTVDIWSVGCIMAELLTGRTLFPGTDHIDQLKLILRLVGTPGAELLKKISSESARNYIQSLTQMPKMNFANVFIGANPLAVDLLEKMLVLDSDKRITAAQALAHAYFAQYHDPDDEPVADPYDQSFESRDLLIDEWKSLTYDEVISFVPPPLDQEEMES
# assay_remarks: Inhibition of p38alpha
pIC50: −log10 of the molar value.
observation_type: pIC50

# annotated cases, reported pIC50 shown
cpd_smiles=Cc1ccc(C(=O)NC2CC2)cc1-c1ccn2c(C(C)C)nnc2c1 observation_type=pIC50 measured=7.57
cpd_smiles=Cc1c(F)cc(C(=O)NC2CC2)cc1-c1c(F)cn2c(C(C)(C)N(C)C)nnc2c1F observation_type=pIC50 measured=7.82
cpd_smiles=Cc1c(F)cc(C(=O)NC2CC2)cc1-c1ccn2c(C3CCC3)nnc2c1 observation_type=pIC50 measured=8.72

P: Cc1c(F)cc(C(=O)NC2CC2)cc1-c1ccn2c(C(N)=O)nnc2c1
Q: Cc1c(F)cc(C(=O)NC2CC2)cc1-c1ccn2c(C3CCOCC3)nnc2c1
[Q] # compare pIC50 for P vs Q ; return the one with the smaller value Answer by stating the label of the chosen item.
[A] P

# credit: BindingDB's records for doi:10.1016/j.bmcl.2012.03.099
